FYI, the data here is from patent EP1660440B1.

details: aqueous buffer, 1 h, pH 2
Assign % of Prodrug Remaining to each entry below.
Give bare numbers, in %.

# Molecule, % of Prodrug Remaining [%]
data = [
    ("CC(C)C(=O)O[C@H](OC(=O)NC[C@H](CC(=O)[O-])c1ccc(Cl)cc1)C(C)C.[Na+] [(100)]", 101),
    ("CC(OC(=O)NC[C@H](CC(=O)[O-])c1ccc(Cl)cc1)OC(=O)C(C)C.[Na+] (stereo partly drawn) [(33)]", 100),
    ("CC(C)C(=O)OC(OC(=O)NC[C@H](CC(=O)[O-])c1ccc(Cl)cc1)C1CCCCC1.[Na+] (stereo partly drawn) [(84)]", 85),
    ("CC(C)(C)C(=O)OCOC(=O)NC[C@H](CC(=O)[O-])c1ccc(Cl)cc1.[Na+] [(20)]", 100),
    ("CC(C)C(=O)O[C@H](C)OC(=O)NC[C@H](CC(=O)[O-])c1ccc(Cl)cc1.[Na+] [(34)]", 100),
]

Let us examine a further case.
Lab note: measured % of Prodrug Remaining of CCCC(=O)OC(OC(=O)NC[C@H](CC(=O)[O-])c1ccc(Cl)cc1)C1CCCCC1.[Na+] (stereo partly drawn) [(85)] was 82

###

system: Pancreatin; assay: Pancreatin stability; assay type: in vitro ADME, porcine; settings: 1 % (w/v) pancreatin, 5 µM, pH 7.5, 37 °C, after 60 min
Note to self: use Yes only for % of Prodrug Remaining readings below 40%; a reading exactly at 40% still gets No.

Reference set, count: 4
# Compound, Category
measured = [
    ("CCC[C@H](OC(=O)NC[C@H](CC(=O)[O-])c1ccc(Cl)cc1)OC(=O)C(C)C.[Na+]", "Yes"),
    ("CC(OC(=O)NC[C@H](CC(=O)[O-])c1ccc(Cl)cc1)OC(=O)C(C)C.[Na+] (stereo partly shown)", "No"),
    ("CC(C)(C)C(=O)OCOC(=O)NC[C@H](CC(=O)[O-])c1ccc(Cl)cc1.[Na+]", "No"),
    ("CC(C)C(=O)O[C@H](C)OC(=O)NC[C@H](CC(=O)[O-])c1ccc(Cl)cc1.[Na+]", "No"),
]

Task item: Answer whether the compound CC(=O)OC(OC(=O)NC[C@H](CC(=O)[O-])c1ccc(Cl)cc1)C(C)C.[Na+] (stereo partly shown) has % of Prodrug Remaining strictly less than 40%
Reply: No

Task item: Answer whether the compound `CC(C)C(=O)O[C@H](OC(=O)NC[C@H](CC(=O)[O-])c1ccc(Cl)cc1)C(C)C.[Na+]` has % of Prodrug Remaining strictly less than 40%
Reply: No

Task item: Answer whether the compound `O=C([O-])C[C@@H](CNC(=O)OCOC(=O)c1cccs1)c1ccc(Cl)cc1.[Na+]` has % of Prodrug Remaining strictly less than 40%
Reply: Yes

Task item: Answer whether the compound `CCOC(C)(OCC)C(=O)OCOC(=O)NC[C@H](CC(=O)[O-])c1ccc(Cl)cc1.[Na+]` has % of Prodrug Remaining strictly less than 40%
Reply: No

Task item: Answer whether the compound CCCC(=O)OC(OC(=O)NC[C@H](CC(=O)[O-])c1ccc(Cl)cc1)C1CCCCC1.[Na+] (stereo partly shown) has % of Prodrug Remaining strictly less than 40%
Reply: Yes

Task item: Answer whether the compound `CC(=O)OCOC(=O)NC[C@H](CC(=O)[O-])c1ccc(Cl)cc1.[Na+]` has % of Prodrug Remaining strictly less than 40%
Reply: No

###

details: human, plasma, 1 h, 2 µM
Measurement Kind: % of Prodrug Remaining (%)
Numbers only, in %.

# Molecule, Reading
rows = [
    ("CC(C)C(=O)OC(OC(=O)NC[C@H](CC(=O)[O-])c1ccc(Cl)cc1)C1CCCCC1.[Na+] (some centres unmarked) [(84)]", 89),
    ("CC(C)C(=O)O[C@H](OC(=O)NC[C@H](CC(=O)[O-])c1ccc(Cl)cc1)C(C)C.[Na+] [(100)]", 89),
    ("CC(C)(C)C(=O)OCOC(=O)NC[C@H](CC(=O)[O-])c1ccc(Cl)cc1.[Na+] [(20)]", 82),
    ("CC(C)C(=O)O[C@H](C)OC(=O)NC[C@H](CC(=O)[O-])c1ccc(Cl)cc1.[Na+] [(34)]", 90),
    ("CC(OC(=O)NC[C@H](CC(=O)[O-])c1ccc(Cl)cc1)OC(=O)C(C)C.[Na+] (some centres unmarked) [(33)]", 96),
]

Each molecule below has a recorded value; state its % of Prodrug Remaining.
1. O=C([O-])C[C@@H](CNC(=O)OCOC(=O)c1cccs1)c1ccc(Cl)cc1.[Na+] [(57)]
2. CCOC(C)(OCC)C(=O)OCOC(=O)NC[C@H](CC(=O)[O-])c1ccc(Cl)cc1.[Na+] [(51)]
3. CC(C)CC(=O)OCOC(=O)NC[C@H](CC(=O)[O-])c1ccc(Cl)cc1.[Na+] [(59)]

Reply:
1: 73; 2: 53; 3: 77

###

conditions: rat, plasma, 1 h, 2 µM
Measurement Kind: % of Baclofen Released (%)
Numbers only, in %.

Below are worked cases with known answers.
# Compound, Reading
records = [
    ("CC(C)(C)C(=O)OCOC(=O)NC[C@H](CC(=O)[O-])c1ccc(Cl)cc1.[Na+]", 8),
    ("CC(C)C(=O)OC(OC(=O)NC[C@H](CC(=O)[O-])c1ccc(Cl)cc1)C1CCCCC1.[Na+] (stereo partly shown)", 11),
    ("O=C([O-])C[C@@H](CNC(=O)OCOC(=O)c1ccccc1)c1ccc(Cl)cc1.[Na+]", 14),
]

Let us examine a further case.
Lab note: measured % of Baclofen Released of `CC(C)C(=O)O[C@H](C)OC(=O)NC[C@H](CC(=O)[O-])c1ccc(Cl)cc1.[Na+]` was 18

###

conditions: rat, plasma, 1 h, 2 µM
Note to self: use Condition met only for % of Prodrug Remaining readings below 80%; a reading exactly at 80% still gets Condition not met.

Reference set, count: 9
# Compound, Category
rows = [
    ("CC(C)(C)C(=O)OCOC(=O)NC[C@H](CC(=O)[O-])c1ccc(Cl)cc1.[Na+]", "Condition not met"),
    ("O=C([O-])C[C@@H](CNC(=O)OCOC(=O)c1ccccc1)c1ccc(Cl)cc1.[Na+]", "Condition met"),
    ("CC(OC(=O)NC[C@H](CC(=O)[O-])c1ccc(Cl)cc1)OC(=O)C(C)C.[Na+] (some centres unmarked)", "Condition met"),
    ("CCOC(C)(OCC)C(=O)OCOC(=O)NC[C@H](CC(=O)[O-])c1ccc(Cl)cc1.[Na+]", "Condition met"),
    ("CC(=O)OC(OC(=O)NC[C@H](CC(=O)[O-])c1ccc(Cl)cc1)C(C)C.[Na+] (some centres unmarked)", "Condition met"),
    ("CC(C)CC(=O)OCOC(=O)NC[C@H](CC(=O)[O-])c1ccc(Cl)cc1.[Na+]", "Condition met"),
    ("CC(C)C(=O)OC(OC(=O)NC[C@H](CC(=O)[O-])c1ccc(Cl)cc1)C1CCCCC1.[Na+] (some centres unmarked)", "Condition not met"),
    ("CC(=O)OCOC(=O)NC[C@H](CC(=O)[O-])c1ccc(Cl)cc1.[Na+]", "Condition not met"),
    ("CC(C)C(=O)O[C@H](OC(=O)NC[C@H](CC(=O)[O-])c1ccc(Cl)cc1)C(C)C.[Na+]", "Condition met"),
]

Turning now to a further compound:
Task item: Answer whether the compound CC(C)C(=O)OC(OC(=O)NC[C@H](CC(=O)[O-])c1ccc(Cl)cc1)C(C)C.[Na+] (some centres unmarked) has % of Prodrug Remaining strictly less than 80%
Reply: Condition met

###

Assign metabolised at 1 h, 2 µM to each entry below.
test: in vitro; conditions: rat, plasma

Below are worked cases with known answers.
# Compound, metabolised at 1 h, 2 µM
measured = [
    ("CCCC(=O)OCOC(=O)NC[C@H](CC(=O)O)c1ccc(Cl)cc1", "40%"),
    ("CCCC(=O)OC(OC(=O)NC[C@H](CC(=O)O)c1ccc(Cl)cc1)C(C)C (stereo partly drawn)", "88%"),
    ("CC(C)C(OC(=O)NC[C@H](CC(=O)O)c1ccc(Cl)cc1)OC(=O)C(C)(C)C (stereo partly drawn)", "29%"),
    ("CC(C)C(=O)OCOC(=O)NC[C@H](CC(=O)O)c1ccc(Cl)cc1", "60%"),
    ("CCCC(=O)O[C@H](CCC)OC(=O)NC[C@H](CC(=O)O)c1ccc(Cl)cc1", "83%"),
]

Lab note: measured metabolised at 1 h, 2 µM of CC(=O)OC(C)OC(=O)NC[C@H](CC(=O)O)c1ccc(Cl)cc1 (stereo partly drawn) was 42%
